The entries below are paired with their reported melting point.

compound=CCC(=O)OCCCCCCCCc1c(O)c(Cl)c(C)c(C=O)c1O reported_result="63 to 64 °C"
compound=Cc1c(Cl)c(O)c(CCCCCCCC(=O)O)c(O)c1C=O reported_result="149 to 150 °C"
compound=CC(C)=CCC/C(C)=C/Cc1c(O)cc(C)c(C=O)c1O reported_result="120 to 121 °C"
compound=Cc1c(Cl)c(O)c(/C=C/CCCCCCOC(=O)C(C)(C)C)c(O)c1C=O reported_result="57 to 58 °C"
compound=C/C(=C\CC/C(C)=C/Cc1c(O)c(Cl)c(C)c(C=O)c1O)CO reported_result="99 to 99.7 °C"
compound=Cc1c(Cl)c(O)c(CCCCCCCOC(=O)C(C)(C)C)c(O)c1C#N reported_result="67 to 68 °C"

input: Requested field: melting point. Item: C/C(=C\Cc1c(O)c(Cl)c(C)c(C=O)c1O)CC/C=C(\C)CCC1OC1(C)C (centres unmarked)
output: 36 to 37 °C

input: # get_value(readout='melting point', item= CC(=O)c1c(C)c(Cl)c(O)c(C/C=C(\C)CC/C=C(\C)CCC=C(C)C)c1O )
output: 92 to 93 °C

====

ASSAY_ENDPOINT: melting point

input: Could you tell me which melting point is on file for CC(=O)/C(C)=C/CC/C(C)=C/Cc1c(O)c(Cl)c(C)c(C=O)c1O [Compound 276-9] ?
output: 119 to 120 °C

input: For the compound C/C(=C\Cc1c(O)c(Cl)c(C)c(C=O)c1O)CC/C=C(\C)COC1CCCO1 (centres unmarked) [Compound 236-12-OTHF] , what melting point is on record?
output: 35 to 36 °C

input: Quick one: melting point of Cc1c(Cl)c(O)c(CCCCCCCCCC(=O)OCC2COC(C)(C)O2)c(O)c1C=O (centres unmarked) [Compound 502-16-G] ?
output: 55 to 56 °C

input: Name the recorded melting point for CC(C)=CCCC#CCc1c(O)c(Cl)c(C)c(C=O)c1O [Compound 285-8] .
output: 138 °C

====

TESTED_TARGET: Cryptosporidium cyanide insensitive oxidase (AOX), recombinant protein (cCpAOX) (Cryptosporidium parvum)
Sequence (Q761U6 entry or part of it): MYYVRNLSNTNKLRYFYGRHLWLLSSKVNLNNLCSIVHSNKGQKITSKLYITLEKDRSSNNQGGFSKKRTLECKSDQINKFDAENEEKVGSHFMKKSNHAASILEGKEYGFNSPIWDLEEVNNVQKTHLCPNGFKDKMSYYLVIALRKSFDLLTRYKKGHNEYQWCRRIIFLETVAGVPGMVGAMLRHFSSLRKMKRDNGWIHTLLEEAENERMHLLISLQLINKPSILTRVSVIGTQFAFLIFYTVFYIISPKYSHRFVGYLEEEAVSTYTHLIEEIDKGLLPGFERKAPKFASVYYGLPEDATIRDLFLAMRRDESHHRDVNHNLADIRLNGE
EXPERIMENT_SUMMARY: CpAOX enzyme inhibition
Assay type: biochemical
TEST_PARAMETERS: recombinant protein produced in E. coli; read-out: CpAOX enzyme inhibition (IC50:nM)
ASSAY_ENDPOINT: IC50 (nM)
Dear colleague, please return just the value in nM, with no unit written.

input: Quick check: IC50 of Cc1c(Cl)c(O)c(CCCCCCCCOC(=O)C(C)C)c(O)c1C=O ?
output: 3.7

====

Entries annotated with measured melting point
Your answer is read as °C, so omit the unit and give the number.

input: For the compound shown here, COC(=O)c1ccc(O)c(C/C=C(\C)CCC=C(C)C)c1O , give the reported melting point.
output: 62

input: GET /values?readout=melting point&item= COC(=O)c1cc(Cl)c(O)c(C/C=C(\C)CCC=C(C)C)c1O
output: 71

====

TESTED_TARGET: recombinant Trypanosome AOX (TAO) enzyme (Trypanosoma brucei brucei, UniProt Q26710)
Sequence (Q26710 whole entry): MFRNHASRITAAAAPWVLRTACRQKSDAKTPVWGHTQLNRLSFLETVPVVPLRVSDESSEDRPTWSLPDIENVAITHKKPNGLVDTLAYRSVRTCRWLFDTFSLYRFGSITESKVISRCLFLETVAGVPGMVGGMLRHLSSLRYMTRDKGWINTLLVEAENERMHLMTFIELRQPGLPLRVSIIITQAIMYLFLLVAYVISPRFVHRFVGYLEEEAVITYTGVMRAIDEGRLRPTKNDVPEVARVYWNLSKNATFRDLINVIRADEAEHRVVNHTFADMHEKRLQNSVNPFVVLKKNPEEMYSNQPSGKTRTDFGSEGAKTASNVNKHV
EXPERIMENT_SUMMARY: TAO enzyme inhibition (quinol oxidase activity, ubiquinol-1 substrate)
TEST_PARAMETERS: TAO-expressing E. coli membrane fraction, 25° C., ubiquinol-1, absorbance at 278 nm
Experimental: Escherichia coli membrane fractions that express TAO by a plasmid harboring TAO cDNA cloned from T. brucei brucei (Fukai, Comparative Biochemistry & Physiology, 124, 141-148, 1999) were used as a recombinant Trypanosome AOX (TAO) enzyme. […] Ubiquinol-1 as a substrate was then added to the mixture to initiated the reaction, and change in absorbance at 278 nm was monitored (Shimadzu UV-3000, molar absorption coefficient ε=15 cm^−1 mM^−1).
pIC50: −log10 of the molar value.
Binary call on pIC50: Yes from 9 upward, No beneath that.

Consider the worked cases shown below.
compound="Cc1c(Cl)c(O)c(CCCCCCCCCCCC(=O)O)c(O)c1C=O [Compound 215-13-COOH]" category_label=No
compound="C/C(=C\\Cc1c(O)c(Cl)c(C)c(C=O)c1O)CC/C=C(\\C)CCC1OC1(C)C (stereo not drawn) [Compound 281-12]" category_label=Yes
compound="Cc1c(Cl)c(O)c(CCCCCCCCOC(=O)C(C)C)c(O)c1C=O [Compound 215-12-OCOiPr]" category_label=Yes
compound="C/C(=C\\Cc1c(O)c(Cl)cc(C=O)c1O)CC/C=C(\\C)C1CC(=O)C(C)(C)O1 (stereo not drawn) [Compound 209]" category_label=Yes

input: Hi team, for Cc1c(Cl)c(O)c(CCC(C)CCCCOC(=O)C(C)(C)C)c(O)c1C=O (stereo not drawn) [Compound 265-11-OPiv] , is the recorded pIC50 at or above 9?
output: Yes

input: Please tell me: is the compound C/C(=C\Cc1c(O)c(Cl)c(C)c(C=O)c1O)CC/C=C(\C)COC1CCCCO1 (stereo not drawn) [Compound 236-13-OTHP] at or over 9 in terms of pIC50?
output: Yes

input: Decide: pIC50 of CCCCCC(C)CCc1c(O)c(Cl)c(C)c(C(C)=O)c1O (stereo not drawn) [Compound 269-8] >= 9?
output: No

input: Hello, I need to know if CC(=O)c1c(C)c(Cl)c(O)c(CCCCCCCOC(=O)C(C)(C)C)c1O [Compound 172-11-OPiv] has measured pIC50 not below 9. Thanks!
output: No

input: Could you please find out whether CCOC(=O)CCCCCCCc1c(O)c(Cl)c(C)c(C=O)c1O [Compound 215-11-COOEt] has pIC50 that meets 9 or exceeds it?
output: Yes

input: // inclusive: pIC50 at least 9? input: CC(C)=CCCC#CCc1c(O)c(Cl)c(C)c(C=O)c1O [Compound 285-8]
output: Yes

input: State whether the measured pIC50 reaches 9, counting equality as reaching it, for COC(CC(=O)C(C)(C)C)/C(C)=C/CC/C(C)=C/Cc1c(O)c(Cl)c(C)c(C=O)c1O (stereo not drawn) [Compound 271-12]
output: Yes

input: Is reported pIC50 greater than or equal to 9 here: COCOC/C(C)=C/CC/C(C)=C/Cc1c(O)c(Cl)c(C)c(C=O)c1O [Compound 236-12-OMOM]
output: Yes

input: Exam item: decide whether the reported pIC50 for Cc1c(Cl)c(O)c(CCCCCCCCCC(=O)C(C)(C)C)c(O)c1C=O [Compound 215-12-Piv] is at least 9.
output: Yes

input: In plain terms: is recorded pIC50 at least 9 for CCCCC/C(C)=C/COc1cc(O)c(C(C)=O)c(C)c1Cl [Compound 270-8] ?
output: No

input: pIC50 >= 9 for CCCCC/C(C)=C/Cc1c(O)c(Cl)c(C)c(C=O)c1O [Compound 264-8] ?
output: Yes

input: Test whether the compound C/C(=C\Cc1c(O)c(Cl)c(C)c(C=O)c1O)CC/C=C(\C)C(C)O (stereo not drawn) [Compound 277-9-OH] records pIC50 of 9 or higher.
output: Yes
